Reference for the values: patent US20120270915A1

- system under test: FAAH Rat brain (Rattus norvegicus, UniProt P97612)
- Construct: from tissue; host or cells: rat brain membranes
- Sequence (P97612 1-579): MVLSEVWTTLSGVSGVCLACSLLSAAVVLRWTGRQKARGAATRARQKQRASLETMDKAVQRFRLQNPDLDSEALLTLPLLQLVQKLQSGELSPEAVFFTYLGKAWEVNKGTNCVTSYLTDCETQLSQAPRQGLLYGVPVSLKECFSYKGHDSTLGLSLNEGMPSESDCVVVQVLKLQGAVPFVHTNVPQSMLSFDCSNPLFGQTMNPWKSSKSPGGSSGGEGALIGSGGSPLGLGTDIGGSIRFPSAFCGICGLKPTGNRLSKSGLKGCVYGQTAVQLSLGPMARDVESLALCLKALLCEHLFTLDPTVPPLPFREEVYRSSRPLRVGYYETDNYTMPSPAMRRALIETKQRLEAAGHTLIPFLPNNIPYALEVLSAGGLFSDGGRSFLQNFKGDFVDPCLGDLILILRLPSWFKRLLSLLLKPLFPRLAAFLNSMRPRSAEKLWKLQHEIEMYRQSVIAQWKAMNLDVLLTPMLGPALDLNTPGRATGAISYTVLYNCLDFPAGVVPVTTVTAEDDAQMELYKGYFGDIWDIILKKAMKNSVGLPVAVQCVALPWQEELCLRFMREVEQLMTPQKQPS
- method summary: FAAH inhibitory activity, rat brain membranes, [14C]-AEA hydrolysis
- Format: biochemical
- Procedure: The compounds of Examples 12, and 19 are tested for FAAH inhibitory activity as follows: Method 1: Membranes obtained from rat brain are incubated with 2 mM [^14C]-AEA, 30 min at 37° C. at pH values ranging from 9.00 to 10.00 in presence and absence of tested compounds in a final volume of […]. Incubation is stopped by extraction with CHCl3/MeOH (1:1) and the aqueous phases containing [^14C]-Ethanolamine produced by [^14C]-AEA hydrolysis are measured.
measured quantity: pIC50
In simple prose, pIC50 is minus the logarithm base ten of a concentration in moles per litre.

Task item: So what does the record say about pIC50 for CCCCCCCCNC(=O)c1coc([C@@H]2CCCN2Cc2cc(F)ccc2CCC(=O)NS(=O)(=O)C(F)(F)F)n1 [Example 12e] ?
Reply: 5.68
